biological target: Muscarinic acetylcholine receptor M3 (Homo sapiens) (UniProt P20309); test: Positive allosteric modulation of recombinant human muscarinic acetylcholine receptor M3 expressed in CHOK1 cells assessed as increase in carbachol-induced intracellular calcium flux at 10 uM preincubated for 5 mins followed by carbachol addition by Fluo4-AM dye based FLIPR assay relative to carbachol; assay type: functional, cell-based; conditions: CHO-K1
Sequence (P20309 whole entry, looked up): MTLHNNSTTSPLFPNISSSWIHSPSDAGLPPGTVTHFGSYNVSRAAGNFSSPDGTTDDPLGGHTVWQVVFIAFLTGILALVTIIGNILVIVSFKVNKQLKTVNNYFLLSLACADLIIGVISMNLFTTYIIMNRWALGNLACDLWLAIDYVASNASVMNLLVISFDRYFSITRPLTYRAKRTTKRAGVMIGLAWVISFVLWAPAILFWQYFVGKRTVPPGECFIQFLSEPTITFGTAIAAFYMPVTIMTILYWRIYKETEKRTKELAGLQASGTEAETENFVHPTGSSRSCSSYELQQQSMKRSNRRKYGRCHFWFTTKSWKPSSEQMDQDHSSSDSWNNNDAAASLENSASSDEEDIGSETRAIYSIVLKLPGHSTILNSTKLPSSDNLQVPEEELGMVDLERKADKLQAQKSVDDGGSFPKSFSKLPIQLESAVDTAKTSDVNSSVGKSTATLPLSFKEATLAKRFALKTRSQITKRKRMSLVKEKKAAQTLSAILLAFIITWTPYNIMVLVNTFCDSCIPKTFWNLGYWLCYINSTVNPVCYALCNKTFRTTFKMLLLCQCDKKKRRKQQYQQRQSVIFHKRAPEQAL
MEASURED ATTRIBUTE: fold change (FC)

1 = COc1ccc(-c2nc(NC(=O)c3cnc(N4CCC(C(=O)O)CC4)cn3)sc2CN2CCCC(C)(C)C2)cc1C(F)(F)F.Cl.Cl
2 = C[C@@H]1CCCN1Cc1sc(NC(=O)c2cnc(N3CCC(C(=O)O)CC3)nc2)nc1-c1cc(Cl)cs1
3 = COc1ccc(-c2nc(NC(=O)c3ccc(O)cc3)sc2CN2CCCC(C)(C)C2)cc1C(F)(F)F
List the compounds shown above again, sorted by falling fold change (FC) values. A complete answer lists every label in the requested sequence.
1, 2, 3

* * *

experiment: Half life in Crl:CD(SD) rat at 1 mg/kg, po measured up to 24 hrs by LC-MS/MS analysis; assay type: ADME, organism-based; conditions: in vivo
MEASURED ATTRIBUTE: half-life (h)
Numbers only; they are read as h.

For the molecule shown here, CC[C@@H]1CCCN1Cc1sc(NC(=O)c2cnc(N3CCC(C(=O)O)CC3)cn2)nc1-c1ccc(OC)c(C(F)(F)F)c1.Cl.Cl , give the reported half-life.
2.16

* * *

assay: AUCinfinity in Crl:CD(SD) rat at 0.3 mg/kg, iv measured up to 24 hrs by LC-MS/MS analysis; assay type: ADME, organism-based; parameters: dose 0.3 mg/kg, route intravenous, time infinity; conditions: in vivo
MEASURED ATTRIBUTE: AUC(0-inf) (ng·h/mL)
Numbers only; they are read as ng·h/mL.

For the molecule shown here, CC[C@@H]1CCCN1Cc1sc(NC(=O)c2cnc(N3CCC(C(=O)O)CC3)cn2)nc1-c1ccc(OC)c(C(F)(F)F)c1.Cl.Cl , give the reported AUC(0-inf).
330

* * *

test: Tmax in Crl:CD(SD) rat at 1 mg/kg, po measured up to 24 hrs by LC-MS/MS analysis; type: ADME, organism-based; conditions: in vivo
MEASURED ATTRIBUTE: Tmax (min)
Numbers only; they are read as min.

For the compound shown here, CC[C@@H]1CCCN1Cc1sc(NC(=O)c2cnc(N3CCC(C(=O)O)CC3)cn2)nc1-c1ccc(OC)c(C(F)(F)F)c1.Cl.Cl , give the reported Tmax.
18.6

* * *

assay: Oral bioavailability in Crl:CD(SD) rat at 1 mg/kg measured up to 24 hrs by LC-MS/MS analysis; assay type: ADME, organism-based; conditions: in vivo
MEASURED ATTRIBUTE: bioavailability (%)
Numbers only; they are read as %.

For the molecule shown here, CC[C@@H]1CCCN1Cc1sc(NC(=O)c2cnc(N3CCC(C(=O)O)CC3)cn2)nc1-c1ccc(OC)c(C(F)(F)F)c1.Cl.Cl , give the reported bioavailability.
19

* * *

Let's look at some molecules and their measured EC30.
biological target: Thrombopoietin receptor (Homo sapiens); assay: Agonist activity at recombinant human c-Mpl receptor transfected in BA/F3 cells assessed as increase in cell proliferation by cell counting analysis; format: cell-based; conditions: baf3
Sequence (P40238 whole entry): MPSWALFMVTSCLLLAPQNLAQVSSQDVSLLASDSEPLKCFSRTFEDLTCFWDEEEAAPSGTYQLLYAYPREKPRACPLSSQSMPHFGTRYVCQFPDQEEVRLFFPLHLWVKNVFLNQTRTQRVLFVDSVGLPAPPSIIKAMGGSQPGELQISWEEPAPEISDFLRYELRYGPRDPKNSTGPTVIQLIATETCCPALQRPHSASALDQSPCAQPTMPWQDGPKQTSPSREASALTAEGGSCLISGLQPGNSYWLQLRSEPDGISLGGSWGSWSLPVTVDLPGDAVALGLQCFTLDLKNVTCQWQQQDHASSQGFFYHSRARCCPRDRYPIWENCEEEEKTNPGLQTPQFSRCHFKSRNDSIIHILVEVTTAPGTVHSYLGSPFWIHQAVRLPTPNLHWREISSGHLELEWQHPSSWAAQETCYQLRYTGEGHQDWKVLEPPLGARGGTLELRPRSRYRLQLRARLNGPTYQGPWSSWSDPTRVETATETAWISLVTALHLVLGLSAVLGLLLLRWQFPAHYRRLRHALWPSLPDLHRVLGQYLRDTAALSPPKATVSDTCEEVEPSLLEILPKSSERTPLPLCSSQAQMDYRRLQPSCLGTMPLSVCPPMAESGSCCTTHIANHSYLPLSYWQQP

Known results for molecules:
INSERT INTO measurements (smiles_data, val) VALUES
  ('C[C@@H]1CCCN1Cc1sc(NC(=O)c2cnc(N3CCC(C(=O)O)CC3)c(F)c2)nc1-c1cc(Cl)cs1.Cl.Cl', '0.0032 µM'),
  ('COC[C@@H]1CCCN1Cc1sc(NC(=O)c2cnc(N3CCC(C(=O)O)CC3)cn2)nc1-c1ccc(OC)c(C(F)(F)F)c1.Cl.Cl', '> 10 µM'),
  ('COCCN(Cc1sc(NC(=O)c2cnc(N3CCC(C(=O)O)CC3)cn2)nc1-c1ccc(OC)c(C(F)(F)F)c1)CC(C)C.Cl.Cl', '> 10 µM');

For the molecule shown here, COc1ccc(-c2nc(NC(=O)c3cnc(N4CCC(C(=O)O)CC4)cn3)sc2CN2CCCC[C@H]2C)cc1C(F)(F)F.Cl.Cl , give the reported EC30.
> 10 µM

Numbers sourced from ChEMBL document CHEMBL4622869.
